# experimental-system: F508delCFTR (Homo sapiens, UniProt P13569, DEL508-508)
# Construct: expressed in transfected cells; host or cells: CFBE4lo-F508delCFTR-HRP cells (human lung derived epithelial cell line, doxycycline-inducible)
# Sequence (P13569 with tags, fused parts or gaps DEL508-508): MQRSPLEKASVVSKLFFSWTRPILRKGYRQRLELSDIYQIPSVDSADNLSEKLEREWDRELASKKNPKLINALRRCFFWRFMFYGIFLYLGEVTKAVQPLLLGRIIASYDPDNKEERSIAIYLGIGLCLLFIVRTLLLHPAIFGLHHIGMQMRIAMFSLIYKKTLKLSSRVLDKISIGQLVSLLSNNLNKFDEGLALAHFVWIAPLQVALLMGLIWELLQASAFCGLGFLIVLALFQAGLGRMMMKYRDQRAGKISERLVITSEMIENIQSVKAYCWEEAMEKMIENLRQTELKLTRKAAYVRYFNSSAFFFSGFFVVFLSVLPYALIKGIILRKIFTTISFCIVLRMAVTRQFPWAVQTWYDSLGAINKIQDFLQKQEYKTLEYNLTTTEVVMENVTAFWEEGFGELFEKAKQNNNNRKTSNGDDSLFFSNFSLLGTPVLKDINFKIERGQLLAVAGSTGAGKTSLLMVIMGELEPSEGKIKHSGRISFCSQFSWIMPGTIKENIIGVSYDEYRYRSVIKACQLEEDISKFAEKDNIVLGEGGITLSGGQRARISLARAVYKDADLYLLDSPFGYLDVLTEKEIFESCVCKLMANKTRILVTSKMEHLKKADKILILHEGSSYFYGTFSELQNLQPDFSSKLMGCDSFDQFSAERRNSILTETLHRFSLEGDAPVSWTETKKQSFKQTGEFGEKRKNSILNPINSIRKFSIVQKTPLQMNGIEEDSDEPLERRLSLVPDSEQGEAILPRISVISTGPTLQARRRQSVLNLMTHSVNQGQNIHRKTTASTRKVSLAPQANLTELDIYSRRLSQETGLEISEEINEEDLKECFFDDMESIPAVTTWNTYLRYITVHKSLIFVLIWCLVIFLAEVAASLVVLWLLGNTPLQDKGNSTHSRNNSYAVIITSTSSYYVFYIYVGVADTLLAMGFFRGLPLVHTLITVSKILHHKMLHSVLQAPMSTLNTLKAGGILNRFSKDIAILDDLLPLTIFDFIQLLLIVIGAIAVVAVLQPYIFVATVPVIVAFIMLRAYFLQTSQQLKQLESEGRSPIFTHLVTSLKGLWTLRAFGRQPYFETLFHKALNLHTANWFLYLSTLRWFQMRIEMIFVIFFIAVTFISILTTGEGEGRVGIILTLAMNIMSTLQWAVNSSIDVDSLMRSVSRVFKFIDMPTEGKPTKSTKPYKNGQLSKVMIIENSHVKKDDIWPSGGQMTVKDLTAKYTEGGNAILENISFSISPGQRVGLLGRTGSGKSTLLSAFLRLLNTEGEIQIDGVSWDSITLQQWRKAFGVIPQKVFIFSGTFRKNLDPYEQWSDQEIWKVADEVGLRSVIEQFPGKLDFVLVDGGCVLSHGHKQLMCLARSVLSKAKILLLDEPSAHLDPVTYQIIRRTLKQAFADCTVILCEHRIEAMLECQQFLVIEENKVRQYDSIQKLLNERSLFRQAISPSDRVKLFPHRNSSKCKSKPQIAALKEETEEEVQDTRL
# method-notes: Cell Surface Expression-Horse Radish Peroxidase (CSE-HRP) Assay
# Type: cell-based
# assay-context: with co-corrector 2 μM; maximum at any tested concentration (up to 20 μM), normalized to on-plate positive control (2 μM co-corrector)

>  <compound>
COc1ccc(C2CCC2)c2c1[C@@H](C(=O)NS(=O)(=O)c1cccc3c1CCCN3)CCO2

>  <experimental-system>
F508delCFTR (Homo sapiens, UniProt P13569, DEL508-508)

>  <Maximum % activity (with co-corrector)>
+++ (≥350)

$$$$
>  <compound>
COc1ccc(C2CCC2)c2c1C(C(=O)NS(=O)(=O)c1cccn3nccc13)CO2 (stereo not shown)

>  <experimental-system>
F508delCFTR (Homo sapiens, UniProt P13569, DEL508-508)

>  <Maximum % activity (with co-corrector)>
+++ (≥350)

$$$$
>  <compound>
COc1ccc(Cl)c2c1C(C(=O)NS(=O)(=O)c1cccc3ccccc13)CC(C)(C)O2 (stereo not shown)

>  <experimental-system>
F508delCFTR (Homo sapiens, UniProt P13569, DEL508-508)

>  <Maximum % activity (with co-corrector)>
+++ (≥350)

$$$$
>  <compound>
COc1ccc(C2CCC2)c2c1C(C(=O)NS(=O)(=O)c1cccc3c1CCCN3)CCO2 (stereo not shown)

>  <experimental-system>
F508delCFTR (Homo sapiens, UniProt P13569, DEL508-508)

>  <Maximum % activity (with co-corrector)>
+++ (≥350)

$$$$
>  <compound>
O=C(NS(=O)(=O)c1cccc2ccccc12)C1OCCc2ccc(OC(F)(F)F)cc21 (stereo not shown)

>  <experimental-system>
F508delCFTR (Homo sapiens, UniProt P13569, DEL508-508)

>  <Maximum % activity (with co-corrector)>
++ (≥150 and <350)

$$$$
>  <compound>
COc1ccc(C(F)(F)F)c2c1[C@@H](C(=O)NS(=O)(=O)c1cccc3ccccc13)CCO2

>  <experimental-system>
F508delCFTR (Homo sapiens, UniProt P13569, DEL508-508)

>  <Maximum % activity (with co-corrector)>
+++ (≥350)

$$$$
>  <compound>
COc1cccc2c1C(C(=O)NS(=O)(=O)c1cccc3ccccc13)CO2 (stereo not shown)

>  <experimental-system>
F508delCFTR (Homo sapiens, UniProt P13569, DEL508-508)

>  <Maximum % activity (with co-corrector)>
++ (≥150 and <350)

$$$$
>  <compound>
COc1cccc2c1OCC2C(=O)NS(=O)(=O)c1cccc2ccccc12 (stereo not shown)

>  <experimental-system>
F508delCFTR (Homo sapiens, UniProt P13569, DEL508-508)

>  <Maximum % activity (with co-corrector)>
++ (≥150 and <350)

$$$$
>  <compound>
COc1ccc(C2CCC2)c2c1C(C(=O)NS(=O)(=O)c1cccc3ncccc13)CO2 (stereo not shown)

>  <experimental-system>
F508delCFTR (Homo sapiens, UniProt P13569, DEL508-508)

>  <Maximum % activity (with co-corrector)>
+++ (≥350)

$$$$
>  <compound>
COc1ccc(C2CCC2)c2c1C(C(=O)NS(=O)(=O)c1cccc3ncccc13)OCC2 (stereo not shown)

>  <experimental-system>
F508delCFTR (Homo sapiens, UniProt P13569, DEL508-508)

>  <Maximum % activity (with co-corrector)>
+++ (≥350)

$$$$
>  <compound>
C[C@]1(C(=O)NS(=O)(=O)c2cccc3ccccc23)COc2cc3c(cc21)OC(F)(F)O3

>  <experimental-system>
F508delCFTR (Homo sapiens, UniProt P13569, DEL508-508)

>  <Maximum % activity (with co-corrector)>
++ (≥150 and <350)

$$$$
>  <compound>
COc1ccc(C2CCC2)c2c1[C@H](C(=O)NS(=O)(=O)c1cccc3nc(C)ccc13)CCO2

>  <experimental-system>
F508delCFTR (Homo sapiens, UniProt P13569, DEL508-508)

>  <Maximum % activity (with co-corrector)>
+++ (≥350)

$$$$

---

# experimental-system: F508delCFTR (Homo sapiens, UniProt P13569, DEL508-508)
# Construct: expressed in transfected cells; host or cells: CFBE4lo-F508delCFTR-HRP cells (human lung derived epithelial cell line, doxycycline-inducible)
# method-notes: Cell Surface Expression-Horse Radish Peroxidase (CSE-HRP) Assay
# Format: cell-based
# assay-context: test compound without co-corrector; maximum at any tested concentration (up to 20 μM), normalized to on-plate positive control (2 μM co-corrector)
Reported Emax by item:

>  <compound>
COc1ccc(Br)c2c1C(C(=O)NS(=O)(=O)c1cccc3ccccc13)CO2 (stereo not shown) [Example 39]

>  <Emax>
≥ 150%

$$$$
>  <compound>
COc1ccc(Cl)c2c1C(C(=O)NS(=O)(=O)c1cccc3ccccc13)CO2 (stereo not shown) [Example 63]

>  <Emax>
≥ 150%

$$$$
>  <compound>
COc1ccc(Cl)c2c1C(C(=O)NS(=O)(=O)c1cccc3ccccc13)CC(C)(C)O2 (stereo not shown) [Example 51]

>  <Emax>
≥ 150%

$$$$
>  <compound>
COc1ccc(C2CCC2)c2c1C(C(=O)NS(=O)(=O)c1cccc3ccccc13)OCC2 (stereo not shown) [Example 79]

>  <Emax>
≥ 150%

$$$$
>  <compound>
COc1ccc(C2CCC2)c2c1[C@H](C(=O)NS(=O)(=O)c1cccc3c1CCCN3)CO2 [Example 101]

>  <Emax>
≥ 150%

$$$$
>  <compound>
O=C(NS(=O)(=O)c1cccc2ccccc12)C1COc2c1cccc2C(F)(F)F (stereo not shown) [Example 45]

>  <Emax>
50 to 150%

$$$$
>  <compound>
COc1ccc(C2CCC2)c2c1[C@H](C(=O)NS(=O)(=O)c1cccc3nc(C)ccc13)CCO2 [Example 77]

>  <Emax>
≥ 150%

$$$$
>  <compound>
COc1cccc2c1CCOC2C(=O)NS(=O)(=O)c1cccc2ccccc12 (stereo not shown) [Example 110]

>  <Emax>
< 50%

$$$$
>  <compound>
COc1ccc(Br)c2c1[C@H](C(=O)NS(=O)(=O)c1cccc3ccccc13)CO2 (single isomer, unassigned) [Example 74]

>  <Emax>
≥ 150%

$$$$
>  <compound>
COc1ccc(C2CCC2)c2c1[C@@H](C(=O)NS(=O)(=O)c1cccc3c1NCCC3)CO2 (single isomer, unassigned) [Example 98]

>  <Emax>
50 to 150%

$$$$
